Source: patent US5574178A

- Tested on: xanthine oxidase (XOD)-hypoxanthine (HX) system (superoxide)
- TEST_DETAILS: Xanthine oxidase system (superoxide generating system)
- Format: biochemical
- EXPERIMENTAL_PARAMETERS: at 20 μM of compound; pH 7.4, 37° C.
Below: a set of entries, each annotated with reported Chemiluminescence intensity (% of control).

Data request: Request the reported Chemiluminescence intensity (% of control) associated with CC(C)CCC1(CCC(C)C)Cc2c(cc(C(C)(C)C)c(O)c2C(C)(C)C)O1
Data returned: 99.2 % of control

Data request: Proceed to CCCCC1(CCCC)Cc2c(cc(C(C)(C)C)c(O)c2C(C)(C)C)O1
Data returned: 91.0 % of control

Data request: Proceed to CC(C)(C)c1cc2c(c(C(C)(C)C)c1O)CC1(CCCC1)O2
Data returned: 83.1 % of control

Data request: Proceed to CCCCCC1(CCCCC)Cc2c(cc(C(C)(C)C)c(O)c2C(C)(C)C)O1
Data returned: 84.5 % of control

Data request: Proceed to CC1Cc2c(c(C(C)(C)C)cc(O)c2C(C)(C)C)O1 (stereo not drawn) [Comparison 6, reference compound]
Data returned: 31.9 % of control

Data request: Proceed to CCCCCCCCC1(CCCCCCCC)Cc2c(cc(C(C)(C)C)c(O)c2C(C)(C)C)O1
Data returned: 94.2 % of control

Data request: Proceed to CC(C)(C)c1cc2c(c(C(C)(C)C)c1O)CC1(CCCCC1)O2
Data returned: 100.3 % of control

Data request: Proceed to CCC(C)c1cc2c(c(C(C)(C)C)c1O)CCO2 (stereo not drawn) [Comparison 7, reference compound]
Data returned: 55.8 % of control

Moving on to another molecule below.
Data request: Request the reported Chemiluminescence intensity (% of control) associated with CC(C)(C)c1c(O)ccc2c1CCO2 [Comparison 1, reference compound]
Data returned: 23.9 % of control

###

- Test system: xanthine oxidase (XOD)-hypoxanthine (HX) system (superoxide)
- TEST_DETAILS: Xanthine oxidase system (superoxide generating system)
- Assay type: biochemical
- EXPERIMENTAL_PARAMETERS: at 20 μM of compound; pH 7.4, 37° C.
- Experimental: The test compounds were evaluated under the following conditions for their effect in a reaction due to a xanthine oxidase (XOD)-hypoxanthine (HX) system in aqueous solution. Xanthine oxidase 0.1 U/ml Hepes buffer solution (pH 7.4) A reaction solution was prepared by mixing hypoxanthine and luminol in the Hepes buffer solution and stored in ice until use. After warming the reaction solution at 37° C. for about 10 min, the reaction was started by addition of the xanthine oxidase solution. […]
MEASURED_QUANTITY: Chemiluminescence intensity (% of control)

Example results:
Data request: Request the reported Chemiluminescence intensity (% of control) associated with CCCCCCCCC1Cc2c(cc(C(C)(C)C)c(O)c2C(C)(C)C)O1 (stereo not shown) [Compound g]
Data returned: 88.6 % of control

Data request: Proceed to CC(C)(C)c1cc2c(c(C(C)(C)C)c1O)CCO2 [Compound a]
Data returned: 41.8 % of control

Continuing:
Data request: Request the reported Chemiluminescence intensity (% of control) associated with CC1Cc2c(ccc(O)c2C(C)(C)C)O1 (stereo not shown) [Comparison 2, reference compound]
Data returned: 32.7 % of control

Data request: Proceed to CC(C)(C)c1cc(O)c(C(C)(C)C)c2c1OCC2 [Comparison 5, reference compound]
Data returned: 21.9 % of control
